experiment: Toxicity in mice; settings: mouse, in vivo, iv, administered intravenously
reported metric: LD50 (mg/kg)
One number for each entry, in mg/kg.

Ask | # return recorded LD50 for input CCCCCCCCCC(=O)N[C@@H](Cc1ccccc1)C(=O)N[C@@H](Cc1c[nH]c2ccccc12)C(=O)N[C@@H](CC(N)=O)C(=O)N[C@@H](CC(=O)O)C(=O)N[C@@H]1C(=O)NCC(=O)N[C@@H](CCCN)C(=O)N[C@@H](CC(=O)O)C(=O)N[C@H](C)C(=O)N[C@@H](CC(=O)O)C(=O)NCC(=O)N[C@H](CO)C(=O)N[C@@H]([C@H](C)CC(=O)O)C(=O)N[C@@H](CC(=O)c2ccccc2N)C(=O)O[C@@H]1C
Reply | 600

Please look at the following compound next.
Ask | Specify reported LD50 for the compound shown: CCCCCCCCCCCCOc1ccc(C(=O)N[C@@H](Cc2c[nH]c3ccccc23)C(=O)N[C@H](CC(N)=O)C(=O)N[C@@H](CC(=O)O)C(=O)N[C@@H]2C(=O)NCC(=O)N[C@@H](CCCN)C(=O)N[C@@H](CC(=O)O)C(=O)N[C@H](C)C(=O)N[C@@H](CC(=O)O)C(=O)NCC(=O)N[C@H](CO)C(=O)N[C@@H]([C@H](C)CC(=O)O)C(=O)N[C@@H](CC(=O)c3ccccc3N)C(=O)O[C@@H]2C)cc1
Reply | 67.5
